Numbers sourced from ChEMBL document CHEMBL1177867.

experiment: Cytotoxicity against HMEC1 cells after 6 hrs by MTT assay; assay type: cell-based; details: human, hmec-1, 6 h
Kind request: treat 70% as inclusive, so Activity at 70% or higher is class 1, anything lower is class 0.

State whether the measured Activity reaches 70%, counting equality as reaching it, for `COc1cc(/C=N/Nc2c(Cl)cc(C(F)(F)F)cc2Cl)cc(OC)c1O`
class 1

State whether the measured Activity reaches 70%, counting equality as reaching it, for `COc1cc(/C=N/Nc2nncc3ccccc23)cc(OC)c1O.Cl`
class 0

State whether the measured Activity reaches 70%, counting equality as reaching it, for `COc1cc(/C=N/NC(=O)c2ccncc2)cc(OC)c1O`
class 0

State whether the measured Activity reaches 70%, counting equality as reaching it, for `COc1cc(/C=N/Nc2nc3ccccc3s2)cc(OC)c1O`
class 0

State whether the measured Activity reaches 70%, counting equality as reaching it, for `COc1cc(/C=N/NC(=O)c2cccnc2)cc(OC)c1O`
class 0

State whether the measured Activity reaches 70%, counting equality as reaching it, for `COc1cc(/C=N/Nc2ccccc2F)cc(OC)c1O`
class 1

State whether the measured Activity reaches 70%, counting equality as reaching it, for Cc1c(C)c2c(c(C)c1O)CCC(C)(C(=O)O)O2 (stereo unspecified) [TROLOX]
class 0

State whether the measured Activity reaches 70%, counting equality as reaching it, for `COc1cc(/C=N/Nc2ccc(F)cc2)cc(OC)c1O`
class 0

* * *

experiment: Inhibition against copper-induced LDL oxidation in cell-free system at 10 uM after 3 hrs by TBARS assay; parameters: scale not given: the % may be the effect or the level left
Criterion: Activity strictly less than 5%. Met: Met. Not met: Not met.

Decide: Activity of `COc1cc(/C=N/NC(=O)c2cccnc2)cc(OC)c1O` strictly below 5%?
Not met

Decide: Activity of `COc1cc(/C=N/NC(=O)c2cc(C)n[nH]2)cc(OC)c1O` strictly below 5%?
Met

Decide: Activity of `COc1cc(/C=N/Nc2nc3ccccc3s2)cc(OC)c1O` strictly below 5%?
Met

Decide: Activity of `COc1cc(/C=N/NC(=O)OCc2ccccc2)cc(OC)c1O` strictly below 5%?
Not met

Decide: Activity of `COc1cc(/C=N/Nc2c(Cl)cc(C(F)(F)F)cc2Cl)cc(OC)c1O` strictly below 5%?
Met

Decide: Activity of `COc1cc(/C=N/Nc2ccc(F)cc2)cc(OC)c1O` strictly below 5%?
Not met

Decide: Activity of `COc1cc(/C=N/Nc2ccccc2F)cc(OC)c1O` strictly below 5%?
Met

Decide: Activity of `COc1cc(/C=N/NC(=O)c2ccncc2)cc(OC)c1O` strictly below 5%?
Not met

Decide: Activity of `COc1cc(/C=N/NC(=N)N)cc(OC)c1O.Cl` strictly below 5%?
Not met

Decide: Activity of Cc1c(C)c2c(c(C)c1O)CCC(C)(C(=O)O)O2 (stereo unspecified) [TROLOX] strictly below 5%?
Not met

* * *

test: Inhibition against UV-induced LDL oxidation in cell-free system at 10 uM after 2 hrs by TBARS assay; set-up: scale not given: the % may be the effect or the level left
Answer each item with its documented Activity.
Report the figure in % without appending any unit label.

Value lookup for Activity; key = `COc1cc(/C=N/Nc2ccc(F)cc2)cc(OC)c1O`
18

Value lookup for Activity; key = `COc1cc(/C=N/NC(=N)N)cc(OC)c1O.Cl`
24

Value lookup for Activity; key = Cc1c(C)c2c(c(C)c1O)CCC(C)(C(=O)O)O2 (stereo unspecified) [TROLOX]
18

Value lookup for Activity; key = `COc1cc(/C=N/NC(=O)c2cccnc2)cc(OC)c1O`
20

Value lookup for Activity; key = `COc1cc(/C=N/NC(=O)c2ccncc2)cc(OC)c1O`
18

Value lookup for Activity; key = `COc1cc(/C=N/Nc2ccccc2F)cc(OC)c1O`
16

Value lookup for Activity; key = `COc1cc(/C=N/Nc2c(Cl)cc(C(F)(F)F)cc2Cl)cc(OC)c1O`
15

Value lookup for Activity; key = `COc1cc(/C=N/NC(=O)c2cc(C)n[nH]2)cc(OC)c1O`
17

Value lookup for Activity; key = `COc1cc(/C=N/Nc2nncc3ccccc23)cc(OC)c1O.Cl`
18

Value lookup for Activity; key = `COc1cc(/C=N/NC(=O)OCc2ccccc2)cc(OC)c1O`
18

Value lookup for Activity; key = `COc1cc(/C=N/Nc2nc3ccccc3s2)cc(OC)c1O`
17

* * *

assay: Cytotoxicity against HMEC1 cells after 6 hrs by MTT assay; type: cell-based; details: human, hmec-1, 6 h
VALUE_TYPE: Activity
Your answer should be a number followed by the unit of measure.

Value lookup for Activity; key = `COc1cc(/C=N/NC(=O)c2cc(C)n[nH]2)cc(OC)c1O`
69%

Value lookup for Activity; key = `COc1cc(/C=N/NC(=N)N)cc(OC)c1O.Cl`
70%

Value lookup for Activity; key = `COc1cc(/C=N/NC(=O)OCc2ccccc2)cc(OC)c1O`
69%
